System: MiaPaca-2 cells
Assay: MiaPaca-2 cell proliferation assay (resazurin)
Assay type: cell-based
Details: Homo sapiens, MIA PaCa-2; Table 2, inhibition of cell proliferation; read-out: MiaPaca-2
property.label: IC50

>>> measurement("CNC(=O)c1cc(-c2nc(NCCO)cc(-c3cc(NC(=O)c4cc(C5CC5)cnn4)ccc3C)n2)ccn1")
"1000 to 10000 nM"
>>> measurement("CNC(=O)c1cc(-c2cc(-c3cc(NC(=O)c4cc(C5CC5)cnn4)ccc3C)cc(N[C@H](C)CO)n2)ccn1")
"100 to 500 nM"
>>> measurement("CNC(=O)c1cc(-c2cc(-c3cc(NC(=O)c4cc(C(F)(F)F)cnn4)ccc3C)cc(N)n2)ccn1")
"500 to 1000 nM"

Consider the additional compound presented here.
GET /value?item= `CNC(=O)c1cc(-c2cc(-c3cc(NC(=O)c4cc(C(C)(F)F)cnn4)ccc3C)cc(OCCO)n2)ccn1` &field=IC50 returns 500 to 1000 nM

* * *

Test system: Pa16c cells
Assay: Pa16c cell proliferation assay (resazurin)
Format: cell-based
Details: Table 2, inhibition of cell proliferation
So I've got a bunch of compounds here, and I need their IC50 values.

Below are 4 compounds. Give each one its IC50.
1. CNC(=O)c1cc(-c2cc(-c3cc(NC(=O)c4cc(C(F)(F)F)cnn4)ccc3C)cc(N[C@H](C)CO)n2)ccn1 [Example 29]
2. CNC(=O)c1cc(-c2cc(-c3cc(NC(=O)c4cc(C(F)(F)F)cnn4)ccc3C)ccn2)ccn1 [Example 9]
3. Cc1ccc(NC(=O)c2cc(C(F)(F)F)cnn2)cc1-c1ccnc(-c2ccnc(C(N)=O)c2)c1 [Example 3]
4. CNC(=O)c1cc(-c2cc(-c3cc(NC(=O)c4cncc(C(F)(F)F)c4)ccc3C)cc(C)n2)ccn1 [Example 13]

100 to 500 nM
100 to 500 nM
< 100 nM
1000 to 10000 nM

* * *

Molecular target: C-Raf kinase (Homo sapiens, UniProt P04049, Y340D/Y341D)
Construct: C-Raf residues 306-end; Y340D, Y341D with N-; purchased Sigma
Sequence (P04049 307-648 Y340D/Y341D): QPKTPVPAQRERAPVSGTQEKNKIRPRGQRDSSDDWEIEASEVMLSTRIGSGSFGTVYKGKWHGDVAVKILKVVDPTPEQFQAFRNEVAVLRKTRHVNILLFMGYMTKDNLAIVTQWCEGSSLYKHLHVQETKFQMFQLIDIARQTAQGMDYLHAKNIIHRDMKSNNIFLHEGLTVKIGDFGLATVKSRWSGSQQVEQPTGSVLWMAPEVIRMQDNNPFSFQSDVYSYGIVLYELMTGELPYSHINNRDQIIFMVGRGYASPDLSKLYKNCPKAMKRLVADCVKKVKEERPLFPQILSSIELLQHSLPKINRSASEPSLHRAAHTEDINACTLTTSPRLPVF
Experiment: Biochemical assay for C-Raf (coupled pyruvate kinase/lactate dehydrogenase)
Details: Table 1, inhibition of biochemical activity; read-out: CRAF
So I've got a bunch of compounds here, and I need their IC50 values.

Below are 7 compounds. Give each one its IC50.
1. CNC(=O)c1cc(-c2cc(-c3cc(NC(=O)c4cc(C(N)=O)cnn4)ccc3C)cc(OCCO)n2)ccn1 [Example 52]
2. CNC(=O)c1cc(-c2cncc(-c3cc(NC(=O)c4ccc(C(F)(F)F)nc4)ccc3C)c2)ncn1 [Example 10]
3. CNC(=O)c1cc(-c2cc(-c3cc(NC(=O)c4cc(C(F)(F)F)cnn4)ccc3C)cc(N)n2)ccn1 [Example 48]
4. CNC(=O)c1cc(-c2nc(NCCO)cc(-c3cc(NC(=O)c4cc(C(F)(F)F)cnn4)ccc3C)n2)ccn1 [Example 23]
5. CNC(=O)c1cc(-c2cc(-c3cc(NC(=O)c4cc(C(F)(F)F)cnn4)ccc3C)cc(NC)n2)ccn1 [Example 47]
6. CNC(=O)c1cc(-c2cc(-c3cc(NC(=O)c4cc(C5CC5)cnn4)ccc3C)nc(NCCO)n2)ccn1 [Example 8]
7. CCc1ccc(NC(=O)c2cc(C(F)(F)F)cnn2)cc1-c1ccnc(-c2ccnc(C(=O)NC)c2)c1 [Example 37]

< 100 nM
100 to 500 nM
< 100 nM
< 100 nM
< 100 nM
< 100 nM
1000 to 10000 nM

Below are 3 compounds. Give each one its IC50.
1. CNC(=O)c1cc(-c2cncc(-c3cc(NC(=O)c4cc(C(F)(F)F)cnn4)ccc3C)c2)ncn1 [Example 17]
2. CNC(=O)c1cc(-c2nc(N[C@H](C)CO)cc(-c3cc(NC(=O)c4cc(C(F)(F)F)cnn4)ccc3C)n2)ccn1 [Example 28]
3. Cc1ccc(NC(=O)c2ccc(C(F)(F)F)nc2)cc1-c1cncc(-c2ccnc(C(N)=O)c2)c1 [Example 11]

1: 100 to 500 nM; 2: < 100 nM; 3: 100 to 500 nM

Below are 5 compounds. Give each one its IC50.
1. CNC(=O)c1cc(-c2cncc(-c3cc(NC(=O)c4cc(C(C)(F)F)cnn4)ccc3C)c2)ccn1 [Example 30]
2. CNC(=O)c1cc(-c2cncc(-c3cc(NC(=O)c4cc(C#N)cnn4)ccc3C)c2)ccn1 [Example 46]
3. CNC(=O)c1cc(-c2nc(NCCO)cc(-c3cc(NC(=O)c4cc(C5CC5)cnn4)ccc3C)n2)ccn1 [Example 22]
4. CNC(=O)c1cc(-c2cc(-c3cc(NC(=O)c4cc(Cl)cnn4)ccc3C)ccn2)ccn1 [Example 36]
5. CNC(=O)c1cc(-c2cc(-c3cc(NC(=O)c4cc(C(F)(F)F)cnn4)ccc3C)cc(OCCO)n2)ccn1 [Example 35]

1. < 100 nM
2. 100 to 500 nM
3. < 100 nM
4. < 100 nM
5. < 100 nM

* * *

System: MiaPaca-2 cells
Experiment: MiaPaca-2 cell proliferation assay (resazurin)
Format: cell-based
Conditions: Homo sapiens, MIA PaCa-2; Table 2, inhibition of cell proliferation; read-out: MiaPaca-2
pIC50: −log10 of the molar value.
So I've got a bunch of compounds here, and I need their pIC50 values.

Some solved cases for reference:
>>> measurement("CNC(=O)c1cc(-c2cc(N[C@H](C)CO)nc(-c3cc(NC(=O)c4cc(C(F)(F)F)cnn4)ccc3C)n2)ccn1")
"5.00 to 6.00"
>>> measurement("Cc1ccc(NC(=O)c2cc(C(F)(F)F)cnn2)cc1-c1ccnc(-c2ccnc(C(N)=O)c2)c1")
"> 7.00"
>>> measurement("CNC(=O)c1cc(-c2cncc(-c3cc(NC(=O)c4cc(C(F)(F)F)cnn4)ccc3C)c2)ncn1")
"5.00 to 6.00"
>>> measurement("CNC(=O)c1cc(-c2nc(NCCO)cc(-c3cc(NC(=O)c4cc(C(F)(F)F)cnn4)ccc3C)n2)ccn1")
"5.00 to 6.00"
>>> measurement("CNC(=O)c1cc(-c2cncc(-c3cc(NC(=O)c4cc(C#N)cnn4)ccc3C)c2)ccn1")
"5.00 to 6.00"
>>> measurement("CNC(=O)c1cc(-c2cc(-c3cc(NC(=O)c4cncc(C(F)(F)F)c4)ccc3C)ccn2)ccn1")
"5.00 to 6.00"
>>> measurement("CNC(=O)c1cc(-c2cc(-c3cc(NC(=O)c4cc(C(F)(F)F)cnn4)ccc3C)cc(NC)n2)ccn1")
"> 7.00"
>>> measurement("CNC(=O)c1cc(-c2cc(-c3cc(NC(=O)c4cncc(C(C)(F)F)c4)ccc3C)ccn2)ccn1")
"5.00 to 6.00"

Consider the additional compound presented here.
GET /value?item= `CNC(=O)c1cc(-c2cc(-c3cc(NC(=O)c4cc(C(F)(F)F)cnn4)ccc3C)nc(N[C@H](C)CO)n2)ccn1` &field=pIC50 returns 6.30 to 7.00

* * *

Biological target: B-Raf kinase (Homo sapiens, UniProt P15056)
Construct: purchased Sigma
Sequence (P15056 416-766): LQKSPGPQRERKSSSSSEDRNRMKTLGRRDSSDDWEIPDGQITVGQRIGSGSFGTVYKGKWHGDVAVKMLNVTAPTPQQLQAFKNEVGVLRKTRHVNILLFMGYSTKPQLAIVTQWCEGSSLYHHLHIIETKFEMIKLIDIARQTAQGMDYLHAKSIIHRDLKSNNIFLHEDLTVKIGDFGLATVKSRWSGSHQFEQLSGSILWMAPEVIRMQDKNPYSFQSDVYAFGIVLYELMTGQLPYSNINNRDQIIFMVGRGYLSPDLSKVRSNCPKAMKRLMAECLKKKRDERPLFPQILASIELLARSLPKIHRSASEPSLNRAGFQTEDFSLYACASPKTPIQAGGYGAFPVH
Assay: Biochemical assay for B-Raf (coupled pyruvate kinase/lactate dehydrogenase)
Details: Table 1, inhibition of biochemical activity; read-out: BRAF
property.label: IC50

>>> measurement("CNC(=O)c1cc(-c2cc(-c3cc(NC(=O)c4cc(C(C)(F)F)cnn4)ccc3C)cc(OCCO)n2)ccn1")
"< 100 nM"
>>> measurement("CNC(=O)c1cc(-c2cncc(-c3cc(NC(=O)c4cc(C(F)(F)F)cnn4)ccc3C)c2)ccn1")
"< 100 nM"
>>> measurement("CNC(=O)c1cc(-c2nc(NCCO)cc(-c3cc(NC(=O)c4cc(C(F)(F)F)cnn4)ccc3C)n2)ccn1")
"< 100 nM"

Below are 4 molecules. Give each one its IC50.
1. CNC(=O)c1cc(-c2cc(-c3cc(NC(=O)c4cc(C#N)cnn4)ccc3C)cc(OCCO)n2)ccn1
2. CNC(=O)c1cc(-c2nc(NCCO)cc(-c3cc(NC(=O)c4cc(C5CC5)cnn4)ccc3C)n2)ccn1
3. CNC(=O)c1cc(-c2cc(-c3cc(NC(=O)c4cnc(C(F)(F)F)nc4)ccc3C)cc(N[C@H](C)CO)n2)ccn1
4. CNC(=O)c1cc(-c2cncc(-c3cc(NC(=O)c4ccc(C(F)(F)F)nc4)ccc3C)c2)ncn1

1: < 100 nM; 2: < 100 nM; 3: 100 to 500 nM; 4: 100 to 500 nM

* * *

So I've got a bunch of molecules here, and I need their IC50 values.
Test system: HCT-116 cells
Assay: HCT-116 cell proliferation assay (resazurin)
Format: cell-based
Details: Homo sapiens; Table 2, inhibition of cell proliferation; read-out: HCT-116

Some solved cases for reference:
>>> measurement("Cc1cc(-c2cc(NC(=O)c3cc(C(F)(F)F)cnn3)ccc2C)cc(-c2ccnc(C(N)=O)c2)n1 [Example 7]")
"100 to 500 nM"
>>> measurement("CNC(=O)c1cc(-c2cc(-c3cc(NC(=O)c4cc(C(N)=O)cnn4)ccc3C)cc(OCCO)n2)ccn1 [Example 52]")
"1000 to 10000 nM"
>>> measurement("CNC(=O)c1cc(-c2cc(-c3cc(NC(=O)c4cc(C(F)(F)F)cnn4)ccc3C)cc(N[C@H](C)CO)n2)ccn1 [Example 29]")
"< 100 nM"

Below are 6 molecules. Give each one its IC50.
1. CNC(=O)c1cc(-c2cc(-c3cc(NC(=O)c4cc(C5CC5)cnn4)ccc3C)cc(NCCO)n2)ccn1 [Example 27]
2. CNC(=O)c1cc(-c2cc(-c3cc(NC(=O)c4cncc(C(F)(F)F)c4)ccc3C)ccn2)ccn1 [Example 12]
3. CNC(=O)c1cc(-c2cncc(-c3cc(NC(=O)c4cc(C(F)(F)F)cnn4)ccc3C)c2)ccn1 [Example 16]
4. CNC(=O)c1cc(-c2cncc(-c3cc(NC(=O)c4cc(C#N)cnn4)ccc3C)c2)ccn1 [Example 46]
5. Cc1ccc(NC(=O)c2ccc(C(F)(F)F)nc2)cc1-c1ccnc(-c2ccnc(C(=O)NC3CC3)c2)c1 [Example 5]
6. CNC(=O)c1cc(-c2cc(-c3cc(NC(=O)c4cc(C(F)(F)F)cnn4)ccc3C)cc(C)n2)ccn1 [Example 2]

< 100 nM
1000 to 10000 nM
500 to 1000 nM
500 to 1000 nM
100 to 500 nM
500 to 1000 nM

GET /value?item= CNC(=O)c1cc(-c2cc(-c3cc(NC(=O)c4cc(C(C)(F)F)cnn4)ccc3C)cc(NCCO)n2)ccn1 [Example 42] &field=IC50 returns < 100 nM
